pIC50 for assorted compounds
System: Aβ42
testProtocol: γ-secretase-modulating activity, Method 2: Aβ42 Alphalisa in supernatant of SKNBE2 cells carrying APP 695-wild type (Table 3b)
Type: cell-based
condition: overnight
Description: Screening was carried out using SKNBE2 cells carrying the APP 695-wild type, grown in Dulbecco's Modified Eagle's Medium/Nutrient mixture F-12 (DMEM/NUT-mix F-12) (HAM) provided by Invitrogen (cat no. 10371-029) containing 5% Serum/Fe supplemented with 1% non-essential amino acids, 1-glutamine 2 mM, Hepes 15 mM, penicillin 50 U/ml (units/ml) en streptomycin 50 μg/ml. […] Aβtotal and Aβ42 concentrations were quantified in the cell supernatant using the Aphalisa technology (Perkin Elmer). […]
// field semantics: pIC50 = negative decimal log of concentration (mol/L)

Identify the reported pIC50 for the following entry. COc1cc(-c2nc(Nc3ccc(F)cc3C(F)(F)F)n(C(C)C)n2)ccc1-n1cnc(C)c1 [Compound 49]
7.40

Note pIC50 for the compound shown: COc1cc(-c2nc(Nc3cc(C)ccc3C)n(C)n2)ccc1-n1cnc(C)c1 [Compound 198]
7.89

Consider the compound COc1cccc(Nc2nc(-c3ccc(-n4cnc(C)c4)c(OC)c3)nn2C)c1 [Compound 186] . State its measured pIC50.
7.11

Supply recorded pIC50 for COc1nc(-c2nc3n(n2)CCC[C@@H]3c2cc(C(F)(F)F)ccc2C)ccc1-n1cnc(C)c1 [Compound 342] here.
6.79

Source: patent US8946266B2
